Attribution: patent US8217000B2

- PROTOCOL TEXT: Plasma pharmacokinetics of CR665 after single IV infusion in human subjects
- ASSAY SETUP: male, human, plasma, iv, 0.03 mg/kg, Cmax, males, 1 hour IV infusion, geometric mean
- Protocol: This clinical study was conducted as a double blind, placebo controlled, ascending single intravenous (IV) dose, sequential group study. […] Plasma and urine samples for the analysis of CR665 and N oxide metabolite were prepared by solid phase extraction. The centrifuged eluates were quantified by liquid chromatography with tandem mass spectrometric detection (LC MS/MS). The lower limit of quantification was 1 ng/mL. […]
Structures can show the parent of a compound that is named as a salt. Non-standard residues stand in square brackets, D forms with d. Residues, ends and D or L forms follow the SMILES beside them. *: point of attachment. NH(4-picolyl) = c1cc(CN*)ccn1; dNle = CCCC[C@@H](N)C(=O)O
ASSAY READOUT: Cmax (ng/mL)

[
  {
    "COMPOUND": "CCCC[C@@H](NC(=O)[C@@H](Cc1ccccc1)NC(=O)[C@H](N)Cc1ccccc1)C(=O)N[C@H](CCCNC(=N)N)C(=O)NCc1ccncc1 [CR665, acetate salt] (H-[dF][dF][dNle][dR]-{NH(4-picolyl)})",
    "ASSAY READOUT": "Cmax",
    "MEASURED RESULT": 65.3
  }
]

###

- PROTOCOL TEXT: Plasma pharmacokinetics of CR665 after single IV infusion in human subjects
- ASSAY SETUP: male, human, plasma, iv, 0.03 mg/kg, CL, males, 5-minute IV infusion, geometric mean
- Procedure: This clinical study was conducted as a double blind, placebo controlled, ascending single intravenous (IV) dose, sequential group study. […] Plasma and urine samples for the analysis of CR665 and N oxide metabolite were prepared by solid phase extraction. The centrifuged eluates were quantified by liquid chromatography with tandem mass spectrometric detection (LC MS/MS). The lower limit of quantification was 1 ng/mL. […]
Counter-ions that a name gives are not always drawn. Non-standard residues stand in square brackets, D forms with d. Residues, ends and D or L forms follow the SMILES beside them. *: point of attachment. NH(4-picolyl) = c1cc(CN*)ccn1; dNle = CCCC[C@@H](N)C(=O)O

[
  {
    "COMPOUND": "CCCC[C@@H](NC(=O)[C@@H](Cc1ccccc1)NC(=O)[C@H](N)Cc1ccccc1)C(=O)N[C@H](CCCNC(=N)N)C(=O)NCc1ccncc1 [CR665, acetate salt] (H-[dF][dF][dNle][dR]-{NH(4-picolyl)})",
    "clearance": "473 mL/min"
  }
]

###

- PROTOCOL TEXT: Plasma pharmacokinetics of CR665 after single IV infusion in human subjects
- ASSAY SETUP: female, human, plasma, iv, 0.24 mg/kg, AUC0-t, females, 1-hour IV infusion, geometric mean
Where a name gives a salt, the structure may show the parent alone. Non-standard residues stand in square brackets, D forms with d. Residues, ends and D or L forms follow the SMILES beside them. *: point of attachment. NH(4-picolyl) = c1cc(CN*)ccn1; dNle = CCCC[C@@H](N)C(=O)O
ASSAY READOUT: AUC(0-t) (ng·h/mL)

[
  {
    "COMPOUND": "CCCC[C@@H](NC(=O)[C@@H](Cc1ccccc1)NC(=O)[C@H](N)Cc1ccccc1)C(=O)N[C@H](CCCNC(=N)N)C(=O)NCc1ccncc1 [CR665, acetate salt] (H-[dF][dF][dNle][dR]-{NH(4-picolyl)})",
    "ENDPOINT UNIT": "ng·h/mL",
    "MEASURED RESULT": 440
  }
]

###

- PROTOCOL TEXT: Plasma pharmacokinetics of CR665 after single IV infusion in human subjects
- ASSAY SETUP: male, human, plasma, iv, 0.12 mg/kg, MRTint, males, 1 hour IV infusion, geometric mean
Where a name gives a salt, the structure may show the parent alone. Non-standard residues stand in square brackets, D forms with d. Residues, ends and D or L forms follow the SMILES beside them. *: point of attachment. NH(4-picolyl) = c1cc(CN*)ccn1; dNle = CCCC[C@@H](N)C(=O)O
ASSAY READOUT: MRT (min)

[
  {
    "COMPOUND": "CCCC[C@@H](NC(=O)[C@@H](Cc1ccccc1)NC(=O)[C@H](N)Cc1ccccc1)C(=O)N[C@H](CCCNC(=N)N)C(=O)NCc1ccncc1 [CR665, acetate salt] (H-[dF][dF][dNle][dR]-{NH(4-picolyl)})",
    "ASSAY READOUT": "MRT",
    "MEASURED RESULT": 43.4
  }
]

###

- PROTOCOL TEXT: Plasma pharmacokinetics of CR665 after single IV infusion in human subjects
- ASSAY SETUP: male, human, plasma, iv, 0.06 mg/kg, t1/2, males, 5-minute IV infusion, geometric mean
Where a name gives a salt, the structure may show the parent alone. Non-standard residues stand in square brackets, D forms with d. Residues, ends and D or L forms follow the SMILES beside them. *: point of attachment. NH(4-picolyl) = c1cc(CN*)ccn1; dNle = CCCC[C@@H](N)C(=O)O
ASSAY READOUT: half-life (h)

[
  {
    "COMPOUND": "CCCC[C@@H](NC(=O)[C@@H](Cc1ccccc1)NC(=O)[C@H](N)Cc1ccccc1)C(=O)N[C@H](CCCNC(=N)N)C(=O)NCc1ccncc1 [CR665, acetate salt] (H-[dF][dF][dNle][dR]-{NH(4-picolyl)})",
    "MEASURED RESULT": 1
  }
]

###

- PROTOCOL TEXT: Plasma pharmacokinetics of CR665 after single IV infusion in human subjects
- ASSAY SETUP: male, human, plasma, iv, 0.03 mg/kg, AUC0-t, males, 1 hour IV infusion, geometric mean
Structures can show the parent of a compound that is named as a salt. Non-standard residues stand in square brackets, D forms with d. Residues, ends and D or L forms follow the SMILES beside them. *: point of attachment. NH(4-picolyl) = c1cc(CN*)ccn1; dNle = CCCC[C@@H](N)C(=O)O

[
  {
    "MOLECULE": "CCCC[C@@H](NC(=O)[C@@H](Cc1ccccc1)NC(=O)[C@H](N)Cc1ccccc1)C(=O)N[C@H](CCCNC(=N)N)C(=O)NCc1ccncc1 [CR665, acetate salt] (H-[dF][dF][dNle][dR]-{NH(4-picolyl)})",
    "ENDPOINT UNIT": "ng·h/mL",
    "AUC(0-t)": 70
  }
]

###

- PROTOCOL TEXT: Plasma pharmacokinetics of CR665 after single IV infusion in human subjects
- ASSAY SETUP: male, human, plasma, iv, 0.42 mg/kg, tmax, males, 1 hour IV infusion, median
- Method: This clinical study was conducted as a double blind, placebo controlled, ascending single intravenous (IV) dose, sequential group study. […] Plasma and urine samples for the analysis of CR665 and N oxide metabolite were prepared by solid phase extraction. The centrifuged eluates were quantified by liquid chromatography with tandem mass spectrometric detection (LC MS/MS). The lower limit of quantification was 1 ng/mL. […]
Where a name gives a salt, the structure may show the parent alone. Non-standard residues stand in square brackets, D forms with d. Residues, ends and D or L forms follow the SMILES beside them. *: point of attachment. NH(4-picolyl) = c1cc(CN*)ccn1; dNle = CCCC[C@@H](N)C(=O)O

[
  {
    "MOLECULE": "CCCC[C@@H](NC(=O)[C@@H](Cc1ccccc1)NC(=O)[C@H](N)Cc1ccccc1)C(=O)N[C@H](CCCNC(=N)N)C(=O)NCc1ccncc1 [CR665, acetate salt] (H-[dF][dF][dNle][dR]-{NH(4-picolyl)})",
    "Tmax (h)": 1
  }
]

###

- PROTOCOL TEXT: Plasma pharmacokinetics of CR665 after single IV infusion in human subjects
- ASSAY SETUP: male, human, plasma, iv, 0.48 mg/kg, CL, males, 1 hour IV infusion, geometric mean
Counter-ions that a name gives are not always drawn. Non-standard residues stand in square brackets, D forms with d. Residues, ends and D or L forms follow the SMILES beside them. *: point of attachment. NH(4-picolyl) = c1cc(CN*)ccn1; dNle = CCCC[C@@H](N)C(=O)O
ASSAY READOUT: clearance

[
  {
    "MOLECULE": "CCCC[C@@H](NC(=O)[C@@H](Cc1ccccc1)NC(=O)[C@H](N)Cc1ccccc1)C(=O)N[C@H](CCCNC(=N)N)C(=O)NCc1ccncc1 [CR665, acetate salt] (H-[dF][dF][dNle][dR]-{NH(4-picolyl)})",
    "ASSAY READOUT": "clearance",
    "MEASURED RESULT": "576 mL/min"
  }
]

###

- PROTOCOL TEXT: Urinary excretion of CR665 after single IV infusion in human subjects
- Format: in vivo
- ASSAY SETUP: female, human, urine, iv, 0.24 mg/kg, females, 0.24 mg/kg, 1 hour IV infusion, urine, geometric mean; read-out: fe0-24 h
Counter-ions that a name gives are not always drawn. Non-standard residues stand in square brackets, D forms with d. Residues, ends and D or L forms follow the SMILES beside them. *: point of attachment. NH(4-picolyl) = c1cc(CN*)ccn1; dNle = CCCC[C@@H](N)C(=O)O

[
  {
    "COMPOUND": "CCCC[C@@H](NC(=O)[C@@H](Cc1ccccc1)NC(=O)[C@H](N)Cc1ccccc1)C(=O)N[C@H](CCCNC(=N)N)C(=O)NCc1ccncc1 [CR665, acetate salt] (H-[dF][dF][dNle][dR]-{NH(4-picolyl)})",
    "dose excreted": "3.02%"
  }
]
